test: Bioavailability in C57BL/6 mouse at 5 mg/kg, sc measured up to 8 hrs by LC-MS analysis; format: ADME, organism-based; settings: in vivo
experimental.endpoint: bioavailability (%)

I: CC[C@@H](C(=O)OCCOCCOCCOCC(=O)N[C@H](C(=O)N1C[C@H](O)C[C@H]1C(=O)NCc1ccc(-c2scnc2C)cc1)C(C)(C)C)[C@@H]1N=C(c2ccc(Cl)cc2)c2c(sc(C)c2C)-n2c(C)nnc21
II: Cc1ncsc1-c1ccc(CNC(=O)[C@@H]2C[C@@H](O)CN2C(=O)[C@@H](NC(=O)COCCOCCOCCNC(=O)C[C@@H]2N=C(c3ccc(Cl)cc3)c3c(sc(C)c3C)-n3c(C)nnc32)C(C)(C)C)cc1
**Q:** Compare reported bioavailability values for I and II . Which is lower? I would appreciate it if you answered with the label of your choice.
**A:** II
